Parameter: combination Emax. Scope: all listed entries.
# Tested on: NCI-H23 (Lung Adenocarcinoma)
# protocol.description: combination Emax (second highest fraction inhibited in the dose matrix, 72 h); higher = more inhibition; extreme values may be limits of the assay
reported.endpoint: combination Emax

>>> quantitative_readout("NC1(C(=O)N[C@@H](CCO)c2ccc(Cl)cc2)CCN(c2ncnc3[nH]ccc23)CC1 [Capivasertib] + Cn1cnc2c(F)c(Nc3ccc(Br)cc3Cl)c(C(=O)NOCCO)cc21 [Selumetinib] (first compound max 10 µM, 7x7, partner max 10 µM)")
0.454
>>> quantitative_readout("Cn1cnc2c(F)c(Nc3ccc(Br)cc3Cl)c(C(=O)NOCCO)cc21 [Selumetinib] + CC(C)n1c(=O)n(C)c2cnc3cc(F)c(-c4ccc(OCCCN5CCCCC5)nc4)cc3c21 [AZD1390] (first compound max 10 µM, 7x7, partner max 0.3 µM)")
0.339
>>> quantitative_readout("CC1(C)CCC(CN2CCN(c3ccc(C(=O)NS(=O)(=O)c4ccc(NCC5CCOCC5)c([N+](=O)[O-])c4)c(Oc4cnc5[nH]ccc5c4)c3)CC2)=C(c2ccc(Cl)cc2)C1 [Venetoclax] + C[C@@H](Nc1cc(F)cc(F)c1)c1cc(C(=O)N(C)C)cc2c(=O)cc(N3CCOCC3)oc12 [AZD8186] (first compound max 1 µM, 7x7, partner max 3 µM)")
0.148
>>> quantitative_readout("CN(CCO)CC[C@H](CSc1ccccc1)Nc1ccc(S(=O)(=O)NC(=O)c2ccc(N3CCC([C@@H](O)c4ccccc4-c4ccc(Cl)cc4)CC3)cc2)cc1S(=O)(=O)C(F)(F)F [AZD4320] + Cn1cnc2c(F)c(Nc3ccc(Br)cc3Cl)c(C(=O)NOCCO)cc21 [Selumetinib] (first compound max 1 µM, 7x7, partner max 3 µM)")
0.435
>>> quantitative_readout("COc1nnc2ccc(N3CCC(c4ccc(OCCN5CCN(C)C(=O)[C@H]5C)cc4)CC3)nn12 [AZD5153] + CN(CC[C@H](CSC1=CC=CC=C1)NC2=C(C=C(C=C2)S(=O)(=O)NC(=O)C3=CC=C(C=C3)N4CCC(CC4)[C@H](C5=CC=CC=C5C6=CC=C(C=C6)Cl)O)S(=O)(=O)C(F)(F)F)CCO [AZD4320] (first compound max 1 µM, 7x7, partner max 1 µM)")
0.766
>>> quantitative_readout("CC1(C)CCC(CN2CCN(c3ccc(C(=O)NS(=O)(=O)c4ccc(NCC5CCOCC5)c([N+](=O)[O-])c4)c(Oc4cnc5[nH]ccc5c4)c3)CC2)=C(c2ccc(Cl)cc2)C1 [Venetoclax] + Cn1cnc2c(F)c(Nc3ccc(Br)cc3Cl)c(C(=O)NOCCO)cc21 [Selumetinib] (first compound max 1 µM, 7x7, partner max 3 µM)")
0.264
>>> quantitative_readout("NC1(C(=O)N[C@@H](CCO)c2ccc(Cl)cc2)CCN(c2ncnc3[nH]ccc23)CC1 [Capivasertib] + COc1nnc2ccc(N3CCC(c4ccc(OCCN5CCN(C)C(=O)[C@H]5C)cc4)CC3)nn12 [AZD5153] (first compound max 10 µM, 7x7, partner max 1 µM)")
0.773
